target: MC5R (Homo sapiens, UniProt P33032); construct: purchased Promega (in-house HiBiT-GPCR construct library, NanoBRET); experiment: NanoBRET screen HiBiT-MC5R in HEK293; format: binding; settings: MC5R; tracer 1μM
Sequence (P33032 whole entry): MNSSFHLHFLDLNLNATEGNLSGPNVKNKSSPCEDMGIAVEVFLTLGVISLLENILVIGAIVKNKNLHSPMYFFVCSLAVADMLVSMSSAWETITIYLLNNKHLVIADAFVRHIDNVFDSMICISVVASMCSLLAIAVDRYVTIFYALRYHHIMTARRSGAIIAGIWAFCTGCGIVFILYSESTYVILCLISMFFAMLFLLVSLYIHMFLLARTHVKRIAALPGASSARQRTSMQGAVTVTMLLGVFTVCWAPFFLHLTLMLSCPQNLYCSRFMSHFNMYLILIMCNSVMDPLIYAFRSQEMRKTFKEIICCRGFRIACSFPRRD

{"molecule": "CC(C)N(CC[C@H](c1ccccc1)c1cc(CCNC(=O)CCOCCOCCOCCOCCNC(=O)CCc2ccc3n2[B-](F)(F)[N+]2=C(c4ccc[nH]4)C=CC2=C3)ccc1O)C(C)C", "NanoBRET Fold Response": 0.91}
{"molecule": "O=C(CCc1ccc2n1[B-](F)(F)[N+]1=C(c3ccc[nH]3)C=CC1=C2)NCCOCCOCCNC(=O)OCCOCCN1CCN(C2=Nc3ccccc3Sc3ccccc32)CC1", "NanoBRET Fold Response": 1.09}
{"molecule": "Cc1cc2c(s1)Nc1ccccc1N=C2N1CCN(CCCNC(=O)CCOCCOCCOCCOCCNC(=O)CCc2ccc3n2[B-](F)(F)[N+]2=C(c4ccc[nH]4)C=CC2=C3)CC1", "NanoBRET Fold Response": 1.04}
{"molecule": "O=C(CCc1ccc2n1[B-](F)(F)[N+]1=C(c3ccc[nH]3)C=CC1=C2)NCc1ccc(C(=O)NCCOCCC(=O)N[C@@H]2CC[C@@]3(O)[C@H]4Cc5ccc(O)c6c5[C@@]3(CCN4CC3CC3)[C@H]2O6)cc1 [Naltrexone-3-NB590]", "NanoBRET Fold Response": 1.04}
{"molecule": "COc1ccccc1N1CCN(CCCCN2C(=O)c3ccc(CNC(=O)CCOCCOCCOCCOCCNC(=O)CCc4ccc5n4[B-](F)(F)[N+]4=C(c6ccc[nH]6)C=CC4=C5)cc3C2=O)CC1", "NanoBRET Fold Response": 1.01}
{"molecule": "COc1ccccc1N1CCN(CCCCN2C(=O)c3ccc(CNC(=O)CCOCCNC(=O)c4ccc(CNC(=O)CCc5ccc6n5[B-](F)(F)[N+]5=C(c7ccc[nH]7)C=CC5=C6)cc4)cc3C2=O)CC1", "NanoBRET Fold Response": 0.96}
{"molecule": "N#CN=C(NCCCOc1cccc(CN2CCCCC2)c1)NCCNC(=O)CCOCCOCCOCCOCCNC(=O)CCc1ccc2n1[B-](F)(F)[N+]1=C(c3ccc[nH]3)C=CC1=C2", "NanoBRET Fold Response": 0.94}
